Tested on: Artemia salina
assayProtocol: Toxicity to Artemia salina assessed as mortality after 24 hrs
Assay type: organism-based
recordedConditions: in vivo
Record form. Attribute: MLD. Fill in for each entry.
Answers are plain numbers, in µg/mL.

Example compounds with recorded MLD:
CC[C@H](C)/C=C/C(C)=C/C[C@H](C)/C=C/C=C/C(=O)OC
10.2
C=C(CC/C=C/C=C/CC(C)C)C[C@@H](C)C/C(C)=C/C(=O)OC
1.7
CC[C@@H](C)CC/C=C/C(C)=C/[C@H](C)C/C=C/C=C/C(=O)OC
5
C=C/C(C)=C/C[C@H](C)/C=C(C)/C=C(C)\C=C\C=C\C(=O)OC
1.1

Now examine the next entry.
Q: Give reported MLD value for CCCCCCCCCC[C@H](C)/C=C(C)/C=C/C(=O)OC
Ans: 4.9

Where do these numbers come from? They come from ChEMBL document CHEMBL1148137.
